B1: Hairpin Ribozyme (parent)
chain: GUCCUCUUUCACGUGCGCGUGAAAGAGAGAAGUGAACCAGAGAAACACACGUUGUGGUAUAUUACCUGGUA

# Variants of: B1
# Measurement Protocol: self-cleavage, relative activity (ratio to wild type); higher = more cleavage; co-transcriptional
If the reported self-cleavage equals or exceeds 0.2, assign 1.0. If not, assign 0.0.

U7A A26C :: 0.0
C16G A39C :: 1.0
A30G A39G :: 0.0
G21C U60G :: 1.0
U33A A64C :: 0.0

Ask: Item C6G U53C with self-cleavage of 0.2 or above?
Reply: 1.0

Ask: Hi team, for U33A A43U , is the recorded self-cleavage at or above 0.2?
Reply: 0.0

Ask: Does U33A A35U have a reported self-cleavage of at least 0.2?
Reply: 0.0
